system: MOLT-4 leukemia; experiment: NCI tumour cell line growth inhibition, 48 h
MEASUREMENT_KIND: TGI

[
  {
    "MOLECULE": "Cc1cc(S(=O)(=O)Nc2nnc3cc(C(F)(F)F)cc(C)n23)c(S)cc1Cl",
    "MEASUREMENT_KIND": "TGI",
    "RESULT": "> 100 µM"
  },
  {
    "MOLECULE": "Nc1ccc(C(=O)N/C(=C\\C=C\\c2ccco2)c2nc3[nH]c(=S)[nH]c(=O)c3[nH]2)cc1",
    "MEASUREMENT_KIND": "TGI",
    "RESULT": "> 100 µM"
  },
  {
    "MOLECULE": "O=C(c1ccco1)N(C(=S)OCc1ccccn1)c1ccccc1",
    "MEASUREMENT_KIND": "TGI",
    "RESULT": "> 100 µM"
  },
  {
    "MOLECULE": "O=C1C=CC(=O)c2ncccc21",
    "MEASUREMENT_KIND": "TGI",
    "RESULT": "> 24.1 µM"
  },
  {
    "MOLECULE": "COc1ccc2c(c1)sc1nc(-c3ccccc3)c(-c3ccsc3)n12",
    "MEASUREMENT_KIND": "TGI",
    "RESULT": "> 100 µM"
  },
  {
    "MOLECULE": "O=c1cc(-c2ccccc2)[nH]c2cccc(S)c12",
    "MEASUREMENT_KIND": "TGI",
    "RESULT": "> 100 µM"
  },
  {
    "MOLECULE": "NC(=O)c1c[se]c(C2OC(CO)C(O)C2O)n1 (stereo unspecified)",
    "MEASUREMENT_KIND": "TGI",
    "RESULT": "> 49 µM"
  },
  {
    "MOLECULE": "CC(C)=CC(C(O)c1ccccc1)S(=O)(=O)c1nccn1C (stereo unspecified)",
    "MEASUREMENT_KIND": "TGI",
    "RESULT": "> 100 µM"
  }
]

stdin: Quick one: TGI for C/C=C/[C@H]1O[C@@](OC)([C@@H](C)[C@H](O)[C@H](C)[C@H]2OC(=O)/C(OC)=C/C(C)=C/[C@@H](C)[C@@H](O)[C@@H](C)[C@@H](O)[C@H](C)C/C(C)=C/C=C/[C@@H]2OC)CC(OC2CC(O)C(OC(N)=O)C(C)O2)[C@@H]1C (stereo partly specified) ?
stdout: < 0.01 µM

stdin: Quick one: TGI for COS(=O)c1cc(Cl)cc(Cl)c1O (stereo unspecified) ?
stdout: > 100 µM

stdin: Quick one: TGI for CC(C)n1c(=O)n(-c2ccccc2)n(C(C)(C)C)c1=O ?
stdout: > 100 µM
